System: Morganella morganii EP-14
procedure-summary: Anti-bacterial activity (MIC), agar dilution
Format: cell-based
study-conditions: Morganella morganii, EP14, 18 h, about 10^6 CFU/ml, 37° C., read-out: MIC
readout: MIC

C[N+](C)(C/C=C/C1=C(C(=O)[O-])N2C(=O)[C@@H](NC(=O)/C(=N\OCF)c3nsc(N)n3)[C@H]2SC1)[C@@H](CC(N)=O)C(N)=O    ≤ 0.025 µg/mL

## Task Using known records, supply MIC for CC(O)C[N+](C)(C)C/C=C/C1=C(C(=O)[O-])N2C(=O)[C@@H](NC(=O)/C(=N\OCC#N)c3nsc(N)n3)[C@H]2SC1 (stereo partly drawn)
## Result 0.05 µg/mL

## Task Look up and report measured MIC for this entry: `C[N+]1(C/C=C/C2=C(C(=O)[O-])N3C(=O)[C@@H](NC(=O)/C(=N\OCF)c4nsc(N)n4)[C@H]3SC2)CCN(S(N)(=O)=O)CC1`
## Result ≤ 0.025 µg/mL

----------
Test system: Kleb. pneumoniae EK-6
procedure-summary: Anti-bacterial activity (MIC), agar dilution
Format: cell-based
study-conditions: Klebsiella pneumoniae, EK6, 18 h, Kleb. pneumoniae EK-6; agar dilution, about 10^6 CFU/ml, 18 hours, 37° C.; read-out: MIC
readout: MIC (µg/mL)
Output spec: scalar in µg/mL, unitless text.

CC(O)C[N+](C)(C)C/C=C/C1=C(C(=O)[O-])N2C(=O)[C@@H](NC(=O)/C(=N\OCC#N)c3nsc(N)n3)[C@H]2SC1 (stereo partly drawn) [Example 149]    0.05
NC(=O)N1CC[N+](C/C=C/C2=C(C(=O)[O-])N3C(=O)[C@@H](NC(=O)/C(=N\OCF)c4nsc(N)n4)[C@H]3SC2)(CCO)CC1 [Example 28]    0.05

## Task Complete the entry with MIC for CN(C)CCC[N+](C)(C)C/C=C/C1=C(C(=O)[O-])N2C(=O)[C@@H](NC(=O)/C(=N\OCF)c3nsc(N)n3)[C@H]2SC1 [Example 77]
## Result 0.2

## Task Specify reported MIC for the compound shown: CC(=O)NCC[N+](C/C=C/C1=C(C(=O)[O-])N2C(=O)[C@@H](NC(=O)/C(=N\OCF)c3nsc(N)n3)[C@H]2SC1)(CCO)CCO [Example 51]
## Result 0.05

----------
Parameter: MIC. Scope: all listed entries.
Test system: Kleb. pneumoniae EK-6
procedure-summary: Anti-bacterial activity (MIC), agar dilution
Type: cell-based
study-conditions: Klebsiella pneumoniae, EK6, 18 h, Kleb. pneumoniae EK-6; agar dilution, about 10^6 CFU/ml, 18 hours, 37° C.; read-out: MIC
Answer with a number only, understood to be in µg/mL.

CN(C)CCn1nnnc1SCC1=C(C(=O)O)N2C(=O)[C@@H](NC(=O)Cc3csc(N)n3)[C@H]2SC1 [CTM, Cefotiam, reference compound]    0.1

## Task Please give the documented MIC of C[N@@+]1(C/C=C/C2=C(C(=O)[O-])N3C(=O)[C@@H](NC(=O)/C(=N\OCC#N)c4nsc(N)n4)[C@H]3SC2)C[C@H](O)C[C@@H]1CO [Example 146]
## Result 0.05

----------
Tested on: Morganella morganii EP-14
procedure-summary: Anti-bacterial activity (MIC), agar dilution
Type: cell-based
study-conditions: Morganella morganii, EP14, 18 h, about 10^6 CFU/ml, 37° C., read-out: MIC
Each entry below carries its reported MIC.

Examples with answers:
C[N+]1(C/C=C/C2=C(C(=O)[O-])N3C(=O)[C@@H](NC(=O)/C(=N\OCF)c4nsc(N)n4)[C@H]3SC2)CCN(S(=O)(=O)O)CC1 [Example 10]    ≤ 0.025 µg/mL
CN(C)CC(O)C[N+](C)(C)C/C=C/C1=C(C(=O)[O-])N2C(=O)[C@@H](NC(=O)/C(=N\OCF)c3nsc(N)n3)[C@H]2SC1 (stereo partly drawn) [Example 78]    0.2 µg/mL
C[N+]1(C/C=C/C2=C(C(=O)[O-])N3C(=O)[C@@H](NC(=O)/C(=N\OCF)c4nsc(N)n4)[C@H]3SC2)CCC(O)CC1 (stereo partly drawn) [Example 90]    0.05 µg/mL

## Task Return MIC for the following molecule: Nc1nc(/C(=N/OCF)C(=O)N[C@@H]2C(=O)N3C(C(=O)[O-])=C(/C=C/C[N+]4(CCO)CCC(O)C4)CS[C@H]23)ns1 (stereo partly drawn) [Example 15-1]
## Result ≤ 0.025 µg/mL

## Task Give the measured MIC for NC(=O)C1=CC[N+](C/C=C/C2=C(C(=O)[O-])N3C(=O)[C@@H](NC(=O)/C(=N\OCF)c4nsc(N)n4)[C@H]3SC2)(CCO)CC1 (stereo partly drawn) [Example 43]
## Result ≤ 0.025 µg/mL

## Task Entry C[N+](C)(C/C=C/C1=C(C(=O)[O-])N2C(=O)[C@@H](NC(=O)/C(=N\OCF)c3nsc(N)n3)[C@H]2SC1)CC(O)CO (stereo partly drawn) [Example 88] needs its MIC filled in; supply it.
## Result ≤ 0.025 µg/mL

----------
In this section, each of the compounds is paired with its reported MIC.
Tested on: Ser. marcescens ES-75
procedure-summary: Anti-bacterial activity (MIC), agar dilution
Format: cell-based
study-conditions: Serratia marcescens, ES75, 18 h, Ser. marcescens ES-75; agar dilution, about 10^6 CFU/ml, 18 hours, 37° C.; read-out: MIC
// note: answer is a bare numeric in µg/mL

Study these solved cases before continuing.
C[N+]1(C/C=C/C2=C(C(=O)[O-])N3C(=O)[C@@H](NC(=O)/C(=N\OCF)c4nsc(N)n4)[C@H]3SC2)CCCC1    0.05
CN1CCC[N+]1(C)C/C=C/C1=C(C(=O)[O-])N2C(=O)[C@@H](NC(=O)/C(=N\OCC#N)c3nsc(N)n3)[C@H]2SC1 (single isomer, unassigned)    0.1
NC(=O)NCC[N+]1(C/C=C/C2=C(C(=O)[O-])N3C(=O)[C@@H](NC(=O)/C(=N\OCF)c4nsc(N)n4)[C@H]3SC2)CCOCC1    0.1
C[N+](C)(C/C=C/C1=C(C(=O)[O-])N2C(=O)[C@@H](NC(=O)/C(=N\OCF)c3nsc(N)n3)[C@H]2SC1)C(CO)(CO)CO    0.1
CN(C)CCn1nnnc1SCC1=C(C(=O)O)N2C(=O)[C@@H](NC(=O)Cc3csc(N)n3)[C@H]2SC1 [CTM, Cefotiam, reference compound]    6.25
C[N+](C)(C/C=C/C1=C(C(=O)[O-])N2C(=O)[C@@H](NC(=O)/C(=N\OCF)c3nsc(N)n3)[C@H]2SC1)CC(=O)NCC(N)=O    0.05

## Task Param request: MIC | system Ser. marcescens ES-75 | item `C[N+]1(C/C=C/C2=C(C(=O)[O-])N3C(=O)[C@@H](NC(=O)/C(=N\OCF)c4nsc(N)n4)[C@H]3SC2)CCN(C(N)=O)CC1`
## Result 0.1

----------
Parameter: MIC. Scope: all listed entries.
Tested on: Ser. marcescens ES-75
procedure-summary: Anti-bacterial activity (MIC), agar dilution
Format: cell-based
study-conditions: Serratia marcescens, ES75, 18 h, Ser. marcescens ES-75; agar dilution, about 10^6 CFU/ml, 18 hours, 37° C.; read-out: MIC
Protocol: MIC (μg/ml) were determined by an agar dilution method [Chemotherapy (Japan), 29, 76-79, 1981]. Overnight cultures of the bacterial strains in Mueller-Hinton broth were diluted to final concentration of about 10^6 CFU/ml, and 5 μl of each bacterial suspension was spotted onto Mueller-Hinton agar plates that contained twofold serial dilutions of antibiotics. MICs were measured after incubation for 18 hours at 37° C.
Quick note: give the figure in mg/L, leave out the unit.

In the examples that follow, each entry is paired with its recorded MIC.
CC12C[N+](C/C=C/C3=C(C(=O)[O-])N4C(=O)[C@@H](NC(=O)/C(=N\OCF)c5nsc(N)n5)[C@H]4SC3)(CCO1)CCO2    0.1
C[N+](C/C=C/C1=C(C(=O)[O-])N2C(=O)[C@@H](NC(=O)/C(=N\OCF)c3nsc(N)n3)[C@H]2SC1)(CCO)CCO    0.1

## Task Indicate its recorded MIC; the molecule in question is `C[N+](C)(C/C=C/C1=C(C(=O)[O-])N2C(=O)[C@@H](NC(=O)/C(=N\OCF)c3nsc(N)n3)[C@H]2SC1)[C@H](CC(N)=O)C(N)=O`
## Result 0.05

## Task Dear colleague, please send me the reported MIC for `CC(=O)C[N+](C)(C)C/C=C/C1=C(C(=O)[O-])N2C(=O)[C@@H](NC(=O)/C(=N\OCC#N)c3nsc(N)n3)[C@H]2SC1` when you can.
## Result 0.1

## Task Please report the measured MIC for `C[N+](C)(C/C=C/C1=C(C(=O)[O-])N2C(=O)[C@@H](NC(=O)/C(=N\OCF)c3nsc(N)n3)[C@H]2SC1)CCO`
## Result 0.1

## Task Give the reported value of MIC for this record: `C[N+](C)(C/C=C/C1=C(C(=O)[O-])N2C(=O)[C@@H](NC(=O)/C(=N\OCC#N)c3nsc(N)n3)[C@H]2SC1)CC(N)=O`
## Result 0.2

## Task Read off the recorded MIC for `NC(=O)C[N+]1(C/C=C/C2=C(C(=O)[O-])N3C(=O)[C@@H](NC(=O)/C(=N\OCF)c4nsc(N)n4)[C@H]3SC2)CCN(C(N)=O)CC1`
## Result 0.1

## Task Input `C[N+](C)(C/C=C/C1=C(C(=O)[O-])N2C(=O)[C@@H](NC(=O)/C(=N\OCF)c3nsc(N)n3)[C@H]2SC1)Cc1nnco1` , output reported MIC.
## Result 0.05
